molecular target: esterase; experiment: Esterase inhibiting activity; settings: rat liver microsome esterase, methyl butyrate substrate, pH 8.0, 37° C., 60 minutes; read-out: IC50 for esterases
VALUE_KIND: log10 IC50 (log10 of the value in µM)
Would you kindly interpret these values as log10 of IC50 expressed in µM?

Look over these answered cases.
- COMPOUND: "CCCCCCC(=O)COS(=O)(=O)c1ccccc1"
  VALUE_OBSERVED: -1.17
- COMPOUND: "CCCCC(CC)C(=O)COS(=O)(=O)c1ccc(OCC)cc1 (stereo not shown)"
  VALUE_OBSERVED: 1.32
- COMPOUND: "C=CCCC(=O)COS(=O)(=O)c1ccccc1"
  VALUE_OBSERVED: -0.28

Can you look up the measured log10 IC50 of "Cc1ccc(S(=O)(=O)OCC(=O)CCC2CCCCC2)cc1" for me?
0.49

Can you look up the measured log10 IC50 of "C=CCCC(=O)COS(=O)(=O)c1c(C)cc(C)cc1C" for me?
-0.92

Can you look up the measured log10 IC50 of "CCCC(CCC)C(=O)COS(=O)(=O)c1ccc(OCC)cc1" for me?
1.75

Can you look up the measured log10 IC50 of "O=C(CCc1ccccc1)COS(=O)(=O)c1ccc(Cl)cc1" for me?
1.40

Can you look up the measured log10 IC50 of "C=CCCCCCCCCC(=O)COS(=O)(=O)c1c(C)cc(C)c(C)c1C" for me?
-1.52

Can you look up the measured log10 IC50 of "Cc1ccc(S(=O)(=O)OCC(=O)CC2CCCC2)cc1" for me?
0.64

Can you look up the measured log10 IC50 of "CCCCCCCC(=O)COS(=O)(=O)c1ccc(OCCCC)cc1" for me?
0.00

###

molecular target: chymotripsin (Bos taurus, UniProt P00766); test: Chymotripsin inhibiting activity; assay type: biochemical; settings: 0.5 h; compound 1×10^-4 mole, ATEE substrate, pH 8.0, 37° C.; read-out: Percent chymotripsin inhibition
Classification field: Y = inhibition at 100 µM at or over 20%; N = inhibition at 100 µM under 20%.

Worked set:
- MOLECULE: "CCCCC(=O)COS(=O)(=O)c1c(C)cc(C)c(C)c1C [Compound 96]"
  LABEL: "N"
- MOLECULE: "CCCCCCCC(=O)COS(=O)(=O)c1ccc(OCCCC)cc1 [Compound 56]"
  LABEL: "Y"
- MOLECULE: "CCCC(=O)COS(=O)(=O)c1c(C)cc(C)cc1C [Compound 73]"
  LABEL: "N"
- MOLECULE: "CCCCC(CC)C(=O)COS(=O)(=O)c1ccccc1C (stereo not drawn) [Compound 32]"
  LABEL: "N"
- MOLECULE: "CCOc1ccc(S(=O)(=O)OCC(=O)CCCC(C)C)cc1 [Compound 145]"
  LABEL: "Y"

Has O=C(CCCCl)COS(=O)(=O)c1ccccc1 [Compound 193] a recorded inhibition at 100 µM greater than or equal to 20%?
Y

Has CCCCCCC(=O)COS(=O)(=O)c1ccc(C)cc1 [Compound 19] a recorded inhibition at 100 µM greater than or equal to 20%?
Y

Has COCCCC(=O)COS(=O)(=O)c1c(C)cc(C)cc1C [Compound 205] a recorded inhibition at 100 µM greater than or equal to 20%?
N

Has COCCCC(=O)COS(=O)(=O)c1ccccc1 [Compound 194] a recorded inhibition at 100 µM greater than or equal to 20%?
N

Has Cc1ccc(S(=O)(=O)OCC(=O)CCC2CCCCC2)cc1 [Compound 167] a recorded inhibition at 100 µM greater than or equal to 20%?
Y
